Values were extracted from PubChem BioAssay (NCI).

Tested on: NCI-H23 lung
ASSAY_TEXT: NCI-60 one-dose screen, 48 h
RUN_PARAMETERS: 10 µM
The panel holds about 83,000 compounds, 20% with a hit somewhere; the sample as a whole holds those more often. The source made the active and inactive calls. Rule for the calls: active = growth percent below 10; inactive = the rest.
Outcomes: label 1 (active), label 0 (inactive)

COMPOUND: COC1[C@@H]2C[C@H]3C(C)(C)O[C@@](C/C=C(/C)C(=O)O)(C2=O)[C@]32Oc3c(CC=C(C)C)c4c(c(O)c3C(=O)[C@H]12)C=CC(C)(C)O4 (some centres not stated)
ASSIGNED_CATEGORY: label 1
//
COMPOUND: CC(C)=CCc1c2c(c(O)c3c1O[C@]14C(=C[C@@H]5C[C@H]1C(C)(C)O[C@@]4(C/C=C(/C)C(=O)O)C5=O)C3=O)C=CC(C)(C)O2
ASSIGNED_CATEGORY: label 1
//
COMPOUND: COc1cccc2c1cc([N+](=O)[O-])c1c(C(=O)O)cc3c(c12)OCO3
ASSIGNED_CATEGORY: label 0
//
COMPOUND: O=C(CCCc1ccc(N(CCCl)CCCl)cc1)OCc1ccccc1
ASSIGNED_CATEGORY: label 0
//
COMPOUND: COc1cc2c(cc1OC)[C@@H]1N(CC2)C(=O)c2ccccc2[C@@]1(C)C(=O)O
ASSIGNED_CATEGORY: label 0
//
COMPOUND: CC1=C2C(=C[C@@](C)(COS(C)(=O)=O)[C@@H]2O)C(=O)[C@](C)(O)C12CC2
ASSIGNED_CATEGORY: label 1
//
COMPOUND: CC(C)(O)/C=C/C(=O)[C@](C)(O)[C@H]1[C@H](O)C[C@@]2(C)[C@H]3CC=C4[C@@H](C[C@H](O)C(=O)C4(C)C)[C@]3(C)C(=O)C[C@]12C
ASSIGNED_CATEGORY: label 0
//
COMPOUND: CC1=C2C(=C[C@@](C)(COC(=O)c3ccc(S(=O)(=O)F)cc3)[C@@H]2OC(=O)c2ccc(S(=O)(=O)F)cc2)C(=O)[C@](C)(O)C12CC2
ASSIGNED_CATEGORY: label 1
//
COMPOUND: COC(=O)[C@H]1[C@@H](O)[C@@]2(O)c3c(OC)cc(OC)cc3O[C@@]2(c2ccc(OC)cc2)[C@@H]1c1ccccc1
ASSIGNED_CATEGORY: label 1
//
COMPOUND: CC(=O)O[C@@H]1[C@@H]2O[C@H]2[C@@](C)(O)C(=O)[C@@H](C)C/C=C/[C@H]2[C@@H]3O[C@]3(C)[C@@H](C)C3[C@H](Cc4ccccc4)NC(=O)[C@@]312 (some centres not stated)
ASSIGNED_CATEGORY: label 0
//
COMPOUND: CN1C(=O)[C@]23SSC1(C)C(=O)N2[C@H]1Nc2ccccc2C1([C@@]12c4ccccc4N[C@@H]1N1C(=O)C4(C)SS[C@]1(C(=O)N4C)[C@H]2O)[C@@H]3O (some centres not stated)
ASSIGNED_CATEGORY: label 1
//
COMPOUND: CC1=C2C(=C[C@@](C)(C=O)[C@@H]2O)C(=O)[C@](C)(O)C12CC2
ASSIGNED_CATEGORY: label 1
